Catalogue of molecules with associated pIC50
System: MCF7:5C (Tamoxifen Resistant) cells
Experimental details: Cell viability of MCF7:5C (tamoxifen resistant), DNA content growth inhibition
Format: cell-based
Setup conditions: 144 h, Table 2, data normalized to 1 uM fulvestrant, day 6, read-out: MCF-5C growth inhibition IC50
pIC50: −log10 of the molar value.
Measure name: pIC50

- Smiles code: "Cc1cc(O)cc(C)c1C(=O)c1sc2cc(O)ccc2c1-c1ccc(/C=C/C(=O)O)cc1"
  Reported: "< 6.70"
- Smiles code: "Cc1cc(O)ccc1C(=O)c1sc2cc(O)ccc2c1-c1ccc(/C=C/C(=O)O)cc1"
  Reported: "< 6.70"
- Smiles code: "Cc1cc(OC(F)(F)F)ccc1C(=O)c1sc2cc(O)ccc2c1-c1ccc(/C=C/C(=O)O)cc1"
  Reported: "< 6.70"
- Smiles code: "O=C(O)/C=C/c1ccc(-c2c(C(=O)C3CCCCC3)sc3cc(O)ccc23)cc1"
  Reported: "> 6.70"

Reference for the values: patent US10703747B2
